The reported numbers originate from patent US20230017532A1.

# Test system: Acinetobacter baumannii ATCC17978
# test_method_notes: Antimicrobial susceptibility testing: 90% growth inhibitory concentration (IC90) determination, Iso-Sensitest broth, OD 600 nm
# Format: cell-based
# measurement_parameters: Acinetobacter baumannii, ATCC17978, 16 h, read-out: ATCC 17978 IC90
Where a name gives a salt, the structure may show the parent alone.
Each entry below carries its recorded IC90.
Value expressed in nM; do not type the unit.

Example entries begin here.
molecule=CCc1cc(Nc2nccn3c(-c4ccc(OC(F)F)c(F)c4F)cnc23)ccc1C(=O)NCCOCCO[C@H]1O[C@H](CO)[C@H](O)[C@H](O)[C@H]1O target_entity="Acinetobacter baumannii ATCC17978" endpoint_unit=nM observed_measurement=350
molecule="COc1ccc(-c2cnc3c(Nc4ccc(C(=O)NCCOCCN)c(C)c4)nccn23)c(F)c1F [Example 5, hydrochloride]" target_entity="Acinetobacter baumannii ATCC17978" endpoint_unit=nM observed_measurement=65
molecule="COc1ccc(-c2cnc3c(Nc4ccc(C(=O)NCCOCCN)c(C)c4)nccn23)c(F)c1 [Example 34, hydrochloride]" target_entity="Acinetobacter baumannii ATCC17978" endpoint_unit=nM observed_measurement=590
molecule="Cc1cc(Nc2nccn3c(-c4ccc(Cl)c(F)c4)cnc23)ccc1C(=O)NCCOCCN [Example 32, hydrochloride]" target_entity="Acinetobacter baumannii ATCC17978" endpoint_unit=nM observed_measurement=300
molecule="COc1ccc(-c2cnc3c(Nc4cc(F)c(C(=O)NCCOCCN)c(Cl)c4)nccn23)c(F)c1F [Example 60, dihydrochloride]" target_entity="Acinetobacter baumannii ATCC17978" endpoint_unit=nM observed_measurement=91
molecule=CCc1cc(Nc2nccn3c(-c4ccc(OC)c(F)c4F)cnc23)ccc1C(=O)NCCOC(C)(C)CN target_entity="Acinetobacter baumannii ATCC17978" endpoint_unit=nM observed_measurement=28
molecule=CCc1cc(Nc2nccn3c(-c4ccc(OC)c(F)c4F)cnc23)ccc1C(=O)NCCOCCNCC(=O)O target_entity="Acinetobacter baumannii ATCC17978" endpoint_unit=nM observed_measurement=490
molecule="Cc1cc(Nc2nccn3c(-c4ccc(F)cc4F)cnc23)ccc1C(=O)NCCOCCN [Example 35, hydrochloride]" target_entity="Acinetobacter baumannii ATCC17978" endpoint_unit=nM observed_measurement=770

Determine from records and report IC90 for COc1ccc(-c2cnc3c(Nc4ccc(C(=O)NCCOCCN)c(C)c4)nccn23)cc1Cl [Example 30, hydrochloride]
140

Determine from records and report IC90 for CCc1cc(Nc2nccn3c(-c4ccc(OC)cc4N)cnc23)ccc1C(=O)NCCOCCN [Example 57, hydrochloride]
650

Determine from records and report IC90 for COc1ccc(-c2cnc3c(Nc4ccc(C(=O)NCCOCCN)c(Cl)c4)nccn23)cc1F [Example 4, hydrochloride]
98

Determine from records and report IC90 for Cc1cc(Nc2nccn3c(-c4ccc(F)c(F)c4)cnc23)ccc1C(=O)NCCOCCN [Example 33, hydrochloride]
520

Determine from records and report IC90 for Cc1cc(Nc2nccn3c(-c4ccc(F)cc4)cnc23)ccc1C(=O)NCCOCCN [Example 31, hydrochloride]
950

* * *

# Test system: Acinetobacter baumannii ATCC17978
# test_method_notes: Antimicrobial susceptibility testing: 90% growth inhibitory concentration (IC90) determination, Iso-Sensitest broth, OD 600 nm
# Type: cell-based
# measurement_parameters: Acinetobacter baumannii, ATCC17978, 16 h, 90% growth inhibitory concentration, Acinetobacter baumannii ATCC17978, Iso-Sensitest broth, OD 600 nm over 16 h; read-out: ATCC 17978 IC90
Where a name gives a salt, the structure may show the parent alone.
readout: IC90 (nM)
Value expressed in nM; do not type the unit.

compound="COc1ccc(-c2cnc3c(Nc4ccc(C(=O)NCCCOCC(=O)N5CCNCC5)c(C)c4)nccn23)cc1F [Example 118, hydrochloride]" observed_measurement=600
compound="COc1ccc(-c2cnc3c(Nc4ccc(C(=O)NCCCNCC[C@H](N)C(=O)O)c(C)c4)nccn23)c(F)c1F [Example 187]" observed_measurement=1100
compound="Cc1cc(Nc2nccn3c(-c4ccc(OC(F)F)cc4)cnc23)ccc1C(=O)NCCOCCNC(=O)CO [Example 119]" observed_measurement=610
compound="COc1ccc(-c2cnc3c(Nc4ccc(C(=O)N(C)CCOCCN5CCN(C=O)CC5)c(C)c4)nccn23)cc1F [Example 140]" observed_measurement=1000
compound="CCc1cc(Nc2nccn3c(-c4ccc(Cl)c(F)c4F)cnc23)ccc1C(=O)NCCOCCN [Example 9, hydrochloride]" observed_measurement=160
compound="Cc1cc(Nc2nccn3c(-c4ccc(OC(F)F)cc4)cnc23)ccc1C(=O)NCCOCCN1CC2(COC2)C1 [Example 114]" observed_measurement=580
compound="COc1ccc(-c2cnc3c(Nc4ccc(C(=O)NCCCOCC(=O)O)c(C)c4)nccn23)cc1F [Example 157]" observed_measurement=8100

The record that follows has no IC90 shown yet.
Determine from records and report IC90 for COc1ccc(-c2cnc3c(Nc4ccc5c(c4)CCN(CCOCCN)C5=O)nccn23)c(F)c1F [Example 171]
290
